assayedSystem: T1, human MSLN-R2-his protein (human, UniProt Q13421 391-486)
T1 construct: it is put last here; also called human MSLN-R2 protein; hMSLN-R2-his; not shown: His tag
T1 sequence (Q13421 other isoform, or with tags, fused parts or gaps): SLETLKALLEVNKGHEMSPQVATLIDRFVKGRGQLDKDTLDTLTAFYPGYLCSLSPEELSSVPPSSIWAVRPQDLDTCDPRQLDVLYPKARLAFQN
measurementDescription: ELISA on coated antigen, antibody 0.2 nM
Quick list: OD450 per entry.
Kindly answer with a numeric value in OD, unit omitted.

IN: Look up OD450 for this binder: S009-F7.66.12 (antibody, human IgG1, kappa, V domains shown, Human-murine chimeric antibody, human IgG1 heavy and kappa light constant regions) VH: QIPLQQSGPELVKPGASVRISCKASDYAFSSSWMNWVKQRPEKGLEWIGRIFVESGNTHYNDKFNGKATLTADKSSRTAYIQLSSLTSEDSAVYFCTRENIFYHGHSSWFAYWGQGTLVTVSA VL: DIVLTQSPASLVVSLGQRATISCRAGESVDDFGISYVHWYQQKPGQPPKLLIYRAANLESGIPARFSGSGSRTDFTLTINPVETDDVAIYYCQQNNKDPFTFGSGTKLEIKR
OUT: 0.05

// moving on: another record for OD450
IN: Which OD450 is listed for Tab106 (YP218, hIgG1) (antibody, V domains shown, Control antibody; YP218 VH and VL recombined into human IgG1 CH and CL expression vectors; also called YP218 human IgG1 antibody) VH: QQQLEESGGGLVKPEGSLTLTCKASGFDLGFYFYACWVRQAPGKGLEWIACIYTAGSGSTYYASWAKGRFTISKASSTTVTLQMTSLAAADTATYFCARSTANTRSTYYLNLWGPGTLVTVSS VL: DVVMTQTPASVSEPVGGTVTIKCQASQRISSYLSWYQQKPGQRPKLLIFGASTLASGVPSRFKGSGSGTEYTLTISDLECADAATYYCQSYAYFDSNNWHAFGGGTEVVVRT ?
OUT: 0.47
